Please go through the items and note down their Kd.
Study target: T1, DmC1GalT1^T43-Q388 (Drosophila melanogaster C1GalT1, residues T43-Q388) (Drosophila melanogaster)
T1 construct: N-glycosylated (lower eukaryotes' C1GalT1 are N-glycosylated); The pHLSec vector (AgeI/KpnI) may leave a few vector residues at both ends (surmise); the SEC was done with the S73-Q388 construct; also called core 1/T-synthase; DmC1GalT1-His; source: HEK293, transfected (pHLSec), secreted, purified (His-Trap, Superdex 75)
T1 sequence (chain, as listed by the source): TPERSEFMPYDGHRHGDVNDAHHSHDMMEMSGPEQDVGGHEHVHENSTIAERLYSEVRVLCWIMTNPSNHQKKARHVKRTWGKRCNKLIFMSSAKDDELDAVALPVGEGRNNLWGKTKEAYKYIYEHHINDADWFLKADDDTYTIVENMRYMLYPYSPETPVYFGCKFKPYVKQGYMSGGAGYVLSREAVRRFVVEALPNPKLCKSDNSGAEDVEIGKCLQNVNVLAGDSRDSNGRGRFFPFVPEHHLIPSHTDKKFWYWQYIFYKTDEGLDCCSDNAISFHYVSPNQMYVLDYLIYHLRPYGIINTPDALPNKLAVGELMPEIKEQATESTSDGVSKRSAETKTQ
Procedure details: ITC; in the absence of UDP: 2 mM glycopeptide titrated into 60 µM DmC1GalT1^T43-Q388; 20 °C; 25 mM TRIS pH 7.5, 150 mM NaCl, 1 mM MnCl2; one-site model; duplicate
Assay context: both partners purified
Ends that are not written are not given here. * marks the point of attachment. αGalNAc = CC(=O)N[C@@H]1[C@@H](O)[C@@H](O)[C@@H](CO)O[C@@H]1*
Numbers only, in µM.

| Binder | Kd, µM |
| --- | --- |
| YADT(αGalNAc)GPF-NH2 (designed acceptor glycopeptide; Made on Rink Amide resin, so a C-terminal amide is to be expected; source: synthetic peptide (solid-phase, Rink Amide MBHA resin, HPLC purified)) [P7 (YADT*GPF) glycopeptide] | 37.1 |

Consider the record given below.
Sample PAAT(αGalNAc)GPY-NH2 (designed acceptor glycopeptide; Made on Rink Amide resin, so a C-terminal amide is to be expected; source: synthetic peptide (solid-phase, Rink Amide MBHA resin, HPLC purified)) [P4 (PAAT*GPY) glycopeptide] ; Kd observed: 41
